TESTED_SYSTEM: activated ROCK II (Rattus norvegicus, UniProt Q62868)
Sequence (Q62868 11-550 limits assumed): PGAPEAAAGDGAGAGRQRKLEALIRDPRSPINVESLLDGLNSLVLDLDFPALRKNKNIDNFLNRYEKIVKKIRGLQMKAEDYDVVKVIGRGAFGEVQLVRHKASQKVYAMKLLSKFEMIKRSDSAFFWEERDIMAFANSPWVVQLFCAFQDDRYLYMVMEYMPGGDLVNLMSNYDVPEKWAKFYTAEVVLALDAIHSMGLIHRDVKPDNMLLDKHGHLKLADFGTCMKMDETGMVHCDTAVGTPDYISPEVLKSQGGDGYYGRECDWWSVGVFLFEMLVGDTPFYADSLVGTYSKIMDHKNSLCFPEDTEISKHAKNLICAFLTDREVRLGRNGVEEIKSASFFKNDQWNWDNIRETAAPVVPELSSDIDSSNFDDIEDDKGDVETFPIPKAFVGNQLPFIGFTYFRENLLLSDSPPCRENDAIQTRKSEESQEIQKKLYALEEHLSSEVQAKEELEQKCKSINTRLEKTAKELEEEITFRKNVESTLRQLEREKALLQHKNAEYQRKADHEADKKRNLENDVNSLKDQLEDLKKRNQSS
EXPERIMENTAL_DETAILS: Test for Evaluation of Inhibiting Activity to Rho Kinase
EXPERIMENTAL_CONDITIONS: S6 Kinase Substrate Peptide, [γ-32P]ATP, 30° C. for 15 minutes, Ki=IC50/(1+S/Km)
pKi: −log10 of the molar value. Counter-ions that a name gives are not always drawn.
QUANTITY_NAME: pKi

[
  {
    "COMPOUND": "CC(C)(N)c1ccc(-c2ccc3[nH]ncc3c2OCC(F)(F)F)cc1 [Compound 5-54, dihydrochloride]",
    "TESTED_SYSTEM": "activated ROCK II (Rattus norvegicus, UniProt Q62868)",
    "RECORDED_RESULT": 7.51
  },
  {
    "COMPOUND": "CC(O)c1c(-c2ccc(C(C)(C)N)cc2)ccc2[nH]ncc12 (stereo not shown) [Compound 5-34, dihydrochloride]",
    "TESTED_SYSTEM": "activated ROCK II (Rattus norvegicus, UniProt Q62868)",
    "RECORDED_RESULT": 6.53
  },
  {
    "COMPOUND": "CCOc1c(-c2ccc(C(C)(C)N)cn2)ccc2[nH]ncc12 [Compound 5-47, trihydrochloride]",
    "TESTED_SYSTEM": "activated ROCK II (Rattus norvegicus, UniProt Q62868)",
    "RECORDED_RESULT": 7.35
  },
  {
    "COMPOUND": "CCC(N)(CC)c1ccc(-c2ccc3[nH]ncc3c2N(C)C)cc1 [Compound 5-25, trihydrochloride]",
    "TESTED_SYSTEM": "activated ROCK II (Rattus norvegicus, UniProt Q62868)",
    "RECORDED_RESULT": 7.64
  },
  {
    "COMPOUND": "CC(C)(N)c1ccc(-c2ccc3[nH]ncc3c2[N+](=O)[O-])nc1 [Compound 5-17, dihydrochloride]",
    "TESTED_SYSTEM": "activated ROCK II (Rattus norvegicus, UniProt Q62868)",
    "RECORDED_RESULT": 6.70
  },
  {
    "COMPOUND": "CC(C)(N)c1ccc(-c2ccc3[nH]ncc3c2OC(F)F)cc1 [Compound 5-53, dihydrochloride]",
    "TESTED_SYSTEM": "activated ROCK II (Rattus norvegicus, UniProt Q62868)",
    "RECORDED_RESULT": 8.44
  },
  {
    "COMPOUND": "C=Cc1c(-c2ccc(C(C)(C)N)cn2)ccc2[nH]ncc12 [Compound 5-30, trihydrochloride]",
    "TESTED_SYSTEM": "activated ROCK II (Rattus norvegicus, UniProt Q62868)",
    "RECORDED_RESULT": 7.77
  }
]
